Species: Rattus norvegicus
Assay: Maximum 5-HT stimulation was determined […]
Type: functional
Binary call on Max with cut-off 50%: strictly below means Condition met, and equality or higher means Condition not met.

MOLECULE	CLASS
COc1cc(CC(C)N)c(OC)cc1Br (stereo not drawn) [BROLAMFETAMINE]	Condition not met
COc1cc(Br)c2c3c1[C@H](CN)CC[C@H]3CO2	Condition met
COc1cc(Br)c2c3c1C[C@H](N)C[C@@H]3CO2 (relative stereo)	Condition not met
COc1cc(Br)c2occ3c2c1[C@H](CN)CC3	Condition met
CN(C)CCc1c[nH]c2cccc(O)c12 [PSILOCIN]	Condition met
CCN(CC)C(=O)[C@@H]1C=C2c3cccc4[nH]cc(c34)C[C@H]2N(C)C1 [LYSERGIDE]	Condition met
COc1cc(CCN)cc(OC)c1OC [MESCALINE]	Condition not met
